Data provenance: paper PMC12668310

Protein target, amino acids: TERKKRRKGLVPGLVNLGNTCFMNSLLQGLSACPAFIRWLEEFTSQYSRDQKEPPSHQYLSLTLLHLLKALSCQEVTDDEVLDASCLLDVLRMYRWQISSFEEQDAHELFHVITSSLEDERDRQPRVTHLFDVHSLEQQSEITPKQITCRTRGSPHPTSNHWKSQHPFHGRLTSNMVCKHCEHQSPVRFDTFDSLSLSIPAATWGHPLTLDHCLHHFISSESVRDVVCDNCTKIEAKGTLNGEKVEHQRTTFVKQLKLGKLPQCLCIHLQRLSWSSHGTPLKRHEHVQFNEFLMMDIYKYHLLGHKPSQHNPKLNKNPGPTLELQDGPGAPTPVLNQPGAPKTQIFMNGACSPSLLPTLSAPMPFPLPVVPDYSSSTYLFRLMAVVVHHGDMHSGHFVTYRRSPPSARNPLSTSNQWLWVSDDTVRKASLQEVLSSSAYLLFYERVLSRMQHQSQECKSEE
Record form. Attribute: IC50. Fill in for each entry.
Numbers only, in nM.

Consider the reported IC50 for these compounds:
>  <compound>
COc1ccccc1-c1cc(C(=O)N[C@@H]2CCN(C#N)C2)n[nH]1

>  <units-symbol>
nM

>  <IC50>
59

$$$$
>  <compound>
N#CN1CC[C@@H](NC(=O)c2ccc(F)c(F)c2)C1

>  <units-symbol>
nM

>  <IC50>
890

$$$$
>  <compound>
N#CN1CC[C@@H](NC(=O)c2ccc(N3CCCC3)cc2F)C1

>  <units-symbol>
nM

>  <IC50>
2400

$$$$

Dear colleague, please send me the reported IC50 for `N#CN1CC[C@@H](NC(=O)c2cc(-c3cccc(Cl)c3)no2)C1` when you can.
43
